molecular target: DRB5*01:01 (Homo sapiens, UniProt P01903+Q30154); assay: biochemical
Where a SMILES comes first, the peptide text is derived from it.
assay-readout: IC50
State the result as a value with its unit after it.

Consider the worked cases shown below.
compound="CC(C)C[C@H](NC(=O)[C@H](C)NC(=O)[C@@H](NC(=O)[C@H](Cc1ccccc1)NC(=O)[C@H](Cc1c[nH]c2ccccc12)NC(=O)[C@@H](N)CO)[C@@H](C)O)C(=O)N[C@H](C(=O)N[C@@H](CCC(N)=O)C(=O)N[C@@H](Cc1c[nH]cn1)C(=O)NCC(=O)N[C@@H](CCCCN)C(=O)N[C@@H](CCC(=O)O)C(=O)N[C@@H](CC(=O)O)C(=O)N[C@@H](CC(C)C)C(=O)N[C@@H](CCCCN)C(=O)O)[C@@H](C)O [Ncl_11] (H-SWFTALTQHGKEDLK-OH)" target_system="DRB5*01:01 (Homo sapiens, UniProt P01903+Q30154)" observed_result="13 nM"
compound="CC[C@H](C)[C@H](NC(=O)[C@H](CCCNC(=N)N)NC(=O)[C@H](CCCNC(=N)N)NC(=O)[C@@H](NC(=O)[C@H](C)NC(=O)[C@H](CCCNC(=N)N)NC(=O)[C@H](CCCNC(=N)N)NC(=O)[C@H](Cc1ccc(O)cc1)NC(=O)[C@@H](N)Cc1ccc(O)cc1)[C@@H](C)O)C(=O)N[C@@H](CCCNC(=N)N)C(=O)NCC(=O)NCC(=O)N[C@@H](CC(=O)O)C(=O)NCC(=O)N[C@@H](CCCCN)C(=O)O [Ncl_P18] (H-YYRRATRRIRGGDGK-OH)" target_system="DRB5*01:01 (Homo sapiens, UniProt P01903+Q30154)" observed_result="16 nM"

Next, consider the following compound.
Q: Identify measured IC50 obtained with DRB5*01:01 (Homo sapiens, UniProt P01903+Q30154) for CC(C)C[C@H](NC(=O)[C@H](CC(N)=O)NC(=O)[C@H](CCCCN)NC(=O)[C@@H](NC(=O)[C@H](CCCNC(=N)N)NC(=O)[C@H](CO)NC(=O)[C@H](Cc1ccc(O)cc1)NC(=O)[C@@H](NC(=O)[C@H](Cc1ccc(O)cc1)NC(=O)[C@H](Cc1ccccc1)NC(=O)[C@H](CO)NC(=O)[C@@H]1CCCN1C(=O)[C@H](CCCCN)NC(=O)[C@@H](NC(=O)[C@@H](N)CC(C)C)C(C)C)C(C)C)C(C)C)C(=O)O [Env_11] (H-LVKPSFYVYSRVKNL-OH) .
Result: 7.5 nM
